These data points were gathered from the NIST ThermoML archive (doi:10.1021/je800658v).

- ASSAY_DETAILS: activity coefficient (dimensionless); of the first substance listed, at infinite dilution; xn = mol fraction of the nth substance listed
- RECORDED_CONDITIONS: 322.55 K; Liquid; inverse gas chromatography; x1 = 0
Assign a class from recorded activity coefficient; defined classes: low = under 7, mid = from 7 up to 60, high = 60 and over

// query In plain terms, what class is CC1CCCCC1 [methylcyclohexane] + CCCCn1cc[n+](C)c1.F[B-](F)(F)F ?
// result high

// query In plain terms, what class is CC(C)O [propan-2-ol] + CCCCn1cc[n+](C)c1.F[B-](F)(F)F ?
// result low

// query In plain terms, what class is CCC(C)CC [3-methylpentane] + CCCCn1cc[n+](C)c1.F[B-](F)(F)F ?
// result high

// query In plain terms, what class is CCCCCCCCC [nonane] + CCCCn1cc[n+](C)c1.F[B-](F)(F)F ?
// result high

// query In plain terms, what class is CCC(=O)CC [pentan-3-one] + CCCCn1cc[n+](C)c1.F[B-](F)(F)F ?
// result low

// query In plain terms, what class is Cc1ccc(C)cc1 [1,4-dimethylbenzene] + CCCCn1cc[n+](C)c1.F[B-](F)(F)F ?
// result low

// query In plain terms, what class is CC(C)OC(C)C [diisopropyl ether] + CCCCn1cc[n+](C)c1.F[B-](F)(F)F ?
// result mid

// query In plain terms, what class is C#CCCCC [1-hexyne] + CCCCn1cc[n+](C)c1.F[B-](F)(F)F ?
// result mid
